System: Pseudomonas aeruginosa
protocol description: Antibacterial activity against Pseudomonas aeruginosa MTCC 2453 at 10 ug per disk after 24 hrs by disc diffusion method
Format: functional
study conditions: MTCC 2453, 24 h, read-out: DIZ
Below is a list of entries, each paired with its recorded zone of inhibition at 10 µg/disc value.

{"smiles input": "CCCCc1nc(Cl)c(-c2cc(-c3ccc4ccccc4c3)nc3c2C(=O)c2ccccc2-3)n1Cc1ccccc1", "target": "Pseudomonas aeruginosa", "zone of inhibition at 10 µg/disc [mm]": 13}
{"smiles input": "CCCCc1nc(Cl)c(-c2cc(-c3ccc4sc5ccccc5c4c3)nc3c2C(=O)c2ccccc2-3)n1Cc1ccccc1", "target": "Pseudomonas aeruginosa", "zone of inhibition at 10 µg/disc [mm]": 7}
{"smiles input": "CCCCc1nc(Cl)c(-c2cc(-c3ccccc3)nc3c2C(=O)c2ccccc2-3)n1Cc1ccccc1", "target": "Pseudomonas aeruginosa", "zone of inhibition at 10 µg/disc [mm]": 10}
{"smiles input": "CCCCc1nc(Cl)c(-c2cc(-c3ccc(Br)cc3)nc3c2C(=O)c2ccccc2-3)n1Cc1ccccc1", "target": "Pseudomonas aeruginosa", "zone of inhibition at 10 µg/disc [mm]": 6}
{"smiles input": "CCCCc1nc(Cl)c(-c2cc(-c3ccc([N+](=O)[O-])cc3)nc3c2C(=O)c2ccccc2-3)n1Cc1ccccc1", "target": "Pseudomonas aeruginosa", "zone of inhibition at 10 µg/disc [mm]": 10}
{"smiles input": "CCCCc1nc(Cl)c(-c2cc(-c3cccc4ccccc34)nc3c2C(=O)c2ccccc2-3)n1Cc1ccccc1", "target": "Pseudomonas aeruginosa", "zone of inhibition at 10 µg/disc [mm]": 6}
{"smiles input": "CCCCc1nc(Cl)c(-c2cc(-c3cccs3)nc3c2C(=O)c2ccccc2-3)n1Cc1ccccc1", "target": "Pseudomonas aeruginosa", "zone of inhibition at 10 µg/disc [mm]": 11}
{"smiles input": "CCCCc1nc(Cl)c(-c2cc(-c3cccc(Br)n3)nc3c2C(=O)c2ccccc2-3)n1Cc1ccccc1", "target": "Pseudomonas aeruginosa", "zone of inhibition at 10 µg/disc [mm]": 12}

###

Tested on: Escherichia coli
protocol description: Antibacterial activity against Escherichia coli MTCC 1573 at 10 ug per disk after 24 hrs by disc diffusion method
Assay type: functional
study conditions: MTCC 1573, 24 h, read-out: DIZ
Recorded zone of inhibition at 10 µg/disc by entry
value type: zone of inhibition at 10 µg/disc

{"smiles input": "CCCCc1nc(Cl)c(-c2cc(-c3ccc(Br)cc3)nc3c2C(=O)c2ccccc2-3)n1Cc1ccccc1", "result": "9 mm"}
{"smiles input": "CCCCc1nc(Cl)c(-c2cc(-c3ccc([N+](=O)[O-])cc3)nc3c2C(=O)c2ccccc2-3)n1Cc1ccccc1", "result": "8 mm"}
{"smiles input": "CCCCc1nc(Cl)c(-c2cc(-c3ccc(Br)s3)nc3c2C(=O)c2ccccc2-3)n1Cc1ccccc1", "result": "8 mm"}
{"smiles input": "CCCCc1nc(Cl)c(-c2cc(-c3cc(OC)c(OC)c(OC)c3)nc3c2C(=O)c2ccccc2-3)n1Cc1ccccc1", "result": "9 mm"}
{"smiles input": "CCCCc1nc(Cl)c(-c2cc(-c3ccco3)nc3c2C(=O)c2ccccc2-3)n1Cc1ccccc1", "result": "8 mm"}
{"smiles input": "CCCCc1nc(Cl)c(-c2cc(-c3cccc4ccccc34)nc3c2C(=O)c2ccccc2-3)n1Cc1ccccc1", "result": "9 mm"}
{"smiles input": "CCCCc1nc(Cl)c(-c2cc(-c3ccc4ccccc4c3)nc3c2C(=O)c2ccccc2-3)n1Cc1ccccc1", "result": "8 mm"}

Data origin, for the record: ChEMBL document CHEMBL2203022
